target of assay: SARS-CoV-2 nsp3-mac1 (Severe acute respiratory syndrome coronavirus 2)
assay remarks: biochemical
Format: biochemical
settings: SARS-CoV-2 nsp3 macrodomain TR-FRET single point; concentration 99.5 uM
measurement label: perc_inhibition_mean (%)
Note: unit % is implicit; provide only the numeric part.

>>> quantitative_readout("Cc1ccc(NC(=O)c2cnn3ccc(C4CCN(C(=O)c5ccccc5)CC4)cc23)cc1C(=O)O [ASAP-0000354]")
-0.624
>>> quantitative_readout("NC1(C(=O)N(CCC(=O)N2CCNCC2)Cc2cccc(Cl)c2)CC(F)(F)C1 [ASAP-0000356]")
-1.174
>>> quantitative_readout("Cc1[nH]ncc1CN(C)C(=O)c1cnn2ccc(C3CCN(C(=O)c4ccccc4)CC3)cc12 [ASAP-0000414]")
0.307
>>> quantitative_readout("O=C(c1ccccc1)N1CCC(c2ccn3ncc(C(=O)N4CCn5ncnc5C4)c3c2)CC1 [ASAP-0000404]")
-3.519
>>> quantitative_readout("CC(C)[C@@H]1C(=O)NCCN1c1ncnc2[nH]ccc12 [ASAP-0000479]")
80.665

GET /values?readout=perc_inhibition_mean&item= O=C(CCN(Cc1cccc(Cl)c1)C(=O)[C@@H]1C[C@@H](O)CN1)N1CCNCC1 [ASAP-0000417]
4.743

Can you handle O=C(c1ccncc1)N1CCC(c2ccn3ncc(C(=O)N4CCCCC4)c3c2)CC1 [ASAP-0000405] next?
26.497

Can you handle O=C1CC[C@@H](CNC(=O)c2cnn3ccc(C4CCN(C(=O)c5ccccc5)CC4)cc23)N1 [ASAP-0000413] next?
-1.468

Can you handle Cc1[nH]cnc1C(=O)N1CCC(c2ccn3ncc(C(=O)N4CCCCC4)c3c2)CC1 [ASAP-0000393] next?
32.041

Can you handle O=C(c1cccnc1O)N1CCC(c2ccn3ncc(C(=O)N4CCCCC4)c3c2)CC1 [ASAP-0000415] next?
-3.94

Can you handle Cn1ncnc1C(=O)N1CCC(c2ccn3ncc(C(=O)N4CCCCC4)c3c2)CC1 [ASAP-0000418] next?
20.346

Can you handle O=C(O)c1ccsc1C(=O)N1CCC(c2ccn3ncc(C(=O)N4CCCCC4)c3c2)CC1 [ASAP-0000360] next?
61.208

Can you handle C[C@@H](Nc1ncnc2[nH]ccc12)c1cnn(CC2CCC2)c1 [ASAP-0000473] next?
4.9

Can you handle Cc1nsc(N(C)C(=O)c2cnn3ccc(C4CCN(C(=O)c5ccccc5)CC4)cc23)n1 [ASAP-0000410] next?
-11.519

Can you handle CC(C)[C@H]1CN(c2ncnc3[nH]ccc23)[C@H]1C(C)C [ASAP-0000465] next?
-2.201

Can you handle CC(C)[C@@H](CCN(C)C(=O)C1CCc2ccccc2CC1)Nc1ncnc2[nH]ccc12 [ASAP-0000481] next?
-10.916

Can you handle O=C(CCN(Cc1cccc(Cl)c1)C(=O)[C@@H]1CC1(F)F)N1CCNCC1 [ASAP-0000408] next?
-3.764

---

assay remarks: In vitro kinetic solubility
settings: In vitro kinetic solubility, ph 7.4
solubility_mean by entry:
Note: unit µM is implicit; provide only the numeric part.

Recorded results for 6 molecules are shown here.
>>> quantitative_readout("CC(C)[C@@H](Nc1ncnc2[nH]c(-c3cnn(C)c3)cc12)c1ccc2c(c1)S(=O)(=O)CCC2 [ASAP-0008678]")
94
>>> quantitative_readout("CC(C)(C)[C@@H](Nc1ncnc2[nH]c(-c3cnn(CC(N)=O)c3)cc12)c1ccc2c(n1)OCCO2 [ASAP-0011162]")
390
>>> quantitative_readout("CC(C)[C@H](Nc1ncnc2[nH]c(-c3cnn(C)c3C#N)cc12)c1ccc2c(n1)OCCO2 [ASAP-0010715]")
53
>>> quantitative_readout("CC(C)[C@@H](Nc1ncnc2[nH]c(-c3ccc4nnn(C)c4c3)cc12)c1ccc2c(c1)S(=O)(=O)CCC2 [ASAP-0011201]")
6
>>> quantitative_readout("CNCc1cc(-c2cc3c(N[C@@H](c4ccc5c(c4)S(=O)(=O)CCC5)C(C)C)ncnc3[nH]2)co1 [ASAP-0011176]")
345
>>> quantitative_readout("CC(C)(C)[C@H](Nc1ncnc2[nH]c(-c3cnn(CC(N)=O)c3)cc12)c1ccc2c(c1)OCCO2 (single isomer, unassigned) [ASAP-0012332]")
104

GET /values?readout=solubility_mean&item= CC(C)C(Nc1ncnc2[nH]ccc12)c1ccc2c(c1)NC(=O)CO2 (stereo not shown) [ASAP-0008431]
374

---

assay remarks: Hepatic microsomal stability, HLM
Assay type: in vitro ADME, human
settings: human, liver microsomes, In vitro human liver microsomal stability
measurement label: microsomal CLint (µL/min/mg)
Note: unit µL/min/mg is implicit; provide only the numeric part.

Recorded results for 2 compounds are shown here.
>>> quantitative_readout("CCNC(=O)c1cc2c(NC(c3ccc4c(c3)S(=O)(=O)CCC4)C(C)C)ncnc2[nH]1 (stereo not drawn)")
892
>>> quantitative_readout("CC(C)C(Nc1ncnc2[nH]ccc12)c1ccc2c(c1)NC(=O)CO2 (stereo not drawn)")
21

GET /values?readout=microsomal CLint&item= CC(C)C(Nc1ncnc2[nH]ccc12)c1ccc2c(c1)S(=O)(=O)CCC2 (stereo not drawn)
37

---

Test system: NMDA
assay remarks: In vitro CEREP profiling, NMDA (antagonist radioligand)
Type: binding
settings: test compound concentration 10 uM
measurement label: perc_inhibition (% inhibition of the binding of a ligand specific for each target) (%)
Note: unit % is implicit; provide only the numeric part.

GET /values?readout=perc_inhibition (% inhibition of the binding of a ligand specific for each target)&item= `CC(C)[C@H](Nc1ncnc2[nH]c(-c3cnn(C)c3C#N)cc12)c1ccc2c(n1)OCCO2`
2

Can you handle `Cn1ncc(-c2cc3c(N[C@@H](c4ccc5c(n4)OCCO5)C(C)(C)C)ncnc3[nH]2)c1C#N` next?
11

---

perc_inhibition_mean by entry:
target of assay: SARS-CoV-2 nsp3-mac1 (Severe acute respiratory syndrome coronavirus 2)
assay remarks: biochemical
Format: biochemical
settings: SARS-CoV-2 nsp3 macrodomain TR-FRET single point, concentration 50.0 uM
Note: unit % is implicit; provide only the numeric part.

GET /values?readout=perc_inhibition_mean&item= `Oc1ccccc1CNc1ncnc2[nH]cnc12`
1.904

Can you handle `Cc1cnc(CCNc2ncnc3[nH]ncc23)c(C)c1` next?
4.342

Can you handle `Cc1cccc(OCCNc2ncnc3nc[nH]c23)c1` next?
3.91

Can you handle `Cc1cccc([C@@H]2CCCN2c2ncnc3[nH]ccc23)n1` next?
0.182

Can you handle `c1nc(NCc2cnc3sccn23)c2[nH]cnc2n1` next?
-4.782

Can you handle `c1ccc2c(-c3c[nH]c4ncccc34)n[nH]c2c1` next?
-7.254

Can you handle `Cc1nc(Nc2cnn(CCO)c2)c2cc[nH]c2n1` next?
-6.147

Can you handle `COCc1nc(CNc2ncc3c(n2)COC3)cs1` next?
-7.137

Can you handle `COC(=O)c1cc2c(Oc3ccccc3C#N)ncnc2[nH]1` next?
2.922

Can you handle `CC(C)n1cc(S(=O)(=O)Nc2cnc3[nH]ncc3c2)cn1` next?
1.555

---

target of assay: CYP2C9 (Homo sapiens, UniProt P11712)
Sequence (P11712 whole entry): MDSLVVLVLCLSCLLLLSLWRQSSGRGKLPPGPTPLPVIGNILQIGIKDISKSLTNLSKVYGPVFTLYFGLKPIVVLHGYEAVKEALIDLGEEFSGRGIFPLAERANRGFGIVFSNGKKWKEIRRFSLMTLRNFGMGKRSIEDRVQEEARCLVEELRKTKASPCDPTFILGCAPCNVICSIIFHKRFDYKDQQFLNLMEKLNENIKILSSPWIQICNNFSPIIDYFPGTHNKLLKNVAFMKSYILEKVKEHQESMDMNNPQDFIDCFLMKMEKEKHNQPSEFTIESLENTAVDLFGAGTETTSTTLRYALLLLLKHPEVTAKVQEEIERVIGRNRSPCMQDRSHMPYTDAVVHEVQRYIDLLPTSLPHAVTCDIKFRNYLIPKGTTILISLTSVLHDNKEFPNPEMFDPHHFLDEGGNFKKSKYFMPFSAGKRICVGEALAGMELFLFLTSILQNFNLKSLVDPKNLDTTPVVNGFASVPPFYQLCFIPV
assay remarks: CYP inhibition
Type: in vitro ADME
settings: human; isoform 2C9; In vitro CYP inhibition pooled
pIC50: −log10 of the molar value.
measurement label: pIC50

GET /values?readout=pIC50&item= CC(C)C(Nc1ncnc2[nH]c(C(=O)NC3CCN(C)C3)cc12)c1ccc2c(c1)S(=O)(=O)CCC2 (stereo not shown) [ASAP-0011198]
< 4.30

---

Tested on: CYP
assay remarks: CYP inhibition
Type: in vitro ADME
settings: isoform 2C19; In vitro CYP inhibition pooled
Excerpt: Supplement media-1.zip/CYP_Inhibition.csv, table | column: ic50; potency
pIC50 by entry:
The value called pIC50 is obtained by taking minus log10 of the concentration in mol/L.

>>> quantitative_readout("CC(C)[C@@H](Nc1ncnc2[nH]c(-c3cnn(C)c3C#N)cc12)c1ccc2c(n1)OCCO2")
5.02
>>> quantitative_readout("CC(C)[C@H](Nc1ncnc2[nH]c(-c3cnn(C)c3C#N)cc12)c1ccc2c(n1)OCCO2")
4.77
>>> quantitative_readout("CNCc1cc(-c2cc3c(N[C@@H](c4ccc5c(c4)S(=O)(=O)CCC5)C(C)C)ncnc3[nH]2)co1")
4.65

GET /values?readout=pIC50&item= `CC(C)[C@H](Nc1ncnc2[nH]ccc12)c1ccc2c(c1)S(=O)(=O)CCC2`
4.82

---

t_half by entry:
assay remarks: In vitro dog liver microsomal stability
Assay type: in vitro ADME
From the text: Supplement media-1.zip/Hepatic_Microsomal_Stability.csv, table | column: clint; t_half
Note: unit min is implicit; provide only the numeric part.

Recorded results for 3 molecules are shown here.
>>> quantitative_readout("CC(C)[C@@H](Nc1ncnc2[nH]c(-c3cnn(C)c3C#N)cc12)c1ccc2c(n1)OCCO2 [ASAP-0010716]")
29.8
>>> quantitative_readout("CC(C)[C@H](Nc1ncnc2[nH]ccc12)c1ccc2c(c1)S(=O)(=O)CCC2 [ASAP-0008674]")
48.5
>>> quantitative_readout("CC(C)[C@H](Nc1ncnc2[nH]c(-c3cnn(C)c3C#N)cc12)c1ccc2c(n1)OCCO2 [ASAP-0010715]")
29.2

GET /values?readout=t_half&item= Cn1ncc(-c2cc3c(N[C@@H](c4ccc5c(n4)OCCO5)C(C)(C)C)ncnc3[nH]2)c1C#N [ASAP-0011221]
38.8

Can you handle CNCc1cc(-c2cc3c(N[C@@H](c4ccc5c(c4)S(=O)(=O)CCC5)C(C)C)ncnc3[nH]2)co1 [ASAP-0011176] next?
34.7
